Catalogue of log10 of MIC readings, one per entry.
# Tested on: Staphylococcus aureus SA1199B
# Format: cell-based
# Protocol: The MIC's were determined using a standard broth micro-dilution assay.
MEASURED_ENDPOINT: log10 of MIC (log10 of the value in µg/mL)

# COMPOUND, log10 of MIC
rows = [
    ("CNC(CC(C)C)C(=O)NC1C(=O)NC(CC(N)=O)C(=O)NC2C(=O)NC3C(=O)NC(C(=O)NC(C(=O)O)c4cc(O)cc(O)c4-c4cc3ccc4O)C(OC3CC(C)(N)C(O)C(C)O3)c3ccc(c(Cl)c3)Oc3cc2cc(c3OC2OC(CO)C(O)C(O)C2OC2CC(C)(NCc3ccc(-c4ccc(C)c(C)c4)cc3)C(O)C(C)O2)Oc2ccc(cc2Cl)C1O (stereo not shown)", 0.00),
    ("CNC(CC(C)C)C(=O)NC1C(=O)NC(CC(N)=O)C(=O)NC2C(=O)NC3C(=O)NC(C(=O)NC(C(=O)O)c4cc(O)cc(O)c4-c4cc3ccc4O)C(OC3CC(C)(N)C(O)C(C)O3)c3ccc(c(Cl)c3)Oc3cc2cc(c3OC2OC(CO)C(O)C(O)C2OC2CC(C)(NCc3ccc(C#Cc4ccccc4)cc3)C(O)C(C)O2)Oc2ccc(cc2Cl)C1O (stereo not shown)", 0.00),
    ("CN[C@H](CC(C)C)C(=O)N[C@H]1C(=O)N[C@@H](CC(N)=O)C(=O)N[C@H]2C(=O)N[C@H]3C(=O)N[C@H](C(=O)N[C@H](C(=O)O)c4cc(O)cc(O)c4-c4cc3ccc4O)[C@H](O[C@H]3C[C@](C)(N)[C@@H](O)[C@H](C)O3)c3ccc(c(Cl)c3)Oc3cc2cc(c3O[C@@H]2O[C@H](CO)[C@@H](O)[C@H](O)[C@H]2O[C@H]2C[C@](C)(NCc3ccc(Oc4ccc(C(C)(C)C)cc4)cc3)[C@@H](O)[C@H](C)O2)Oc2ccc(cc2Cl)[C@H]1O", 0.00),
    ("CN[C@H](CC(C)C)C(=O)N[C@H]1C(=O)N[C@@H](CC(N)=O)C(=O)N[C@H]2C(=O)N[C@H]3C(=O)N[C@H](C(=O)N[C@H](C(=O)O)c4cc(O)cc(O)c4-c4cc3ccc4O)[C@H](O[C@H]3C[C@](C)(N)[C@@H](O)[C@H](C)O3)c3ccc(c(Cl)c3)Oc3cc2cc(c3O[C@@H]2O[C@H](CO)[C@@H](O)[C@H](O)[C@H]2O[C@H]2C[C@](C)(NCc3cccc(-c4ccccc4)c3)[C@@H](O)[C@H](C)O2)Oc2ccc(cc2Cl)[C@H]1O", -0.30),
    ("CC(C)CC(C(=O)NC1C(=O)NC(CC(N)=O)C(=O)NC2C(=O)NC3C(=O)NC(C(=O)NC(C(=O)O)c4cc(O)cc(O)c4-c4cc3ccc4O)C(OC3CC(C)(N)C(O)C(C)O3)c3ccc(c(Cl)c3)Oc3cc2cc(c3OC2OC(CO)C(O)C(O)C2OC2CC(C)(NCC3CC=CCC3)C(O)C(C)O2)Oc2ccc(cc2Cl)C1O)N(C)CC1CC=CCC1 (stereo not shown)", -0.60),
    ("CNC(CC(C)C)C(=O)NC1C(=O)NC(CC(N)=O)C(=O)NC2C(=O)NC3C(=O)NC(C(=O)NC(C(=O)O)c4cc(O)cc(O)c4-c4cc3ccc4O)C(OC3CC(C)(NCc4ccc(-c5ccccc5)cc4)C(O)C(C)O3)c3ccc(c(Cl)c3)Oc3cc2cc(c3OC2OC(CO)C(O)C(O)C2OC2CC(C)(NCc3ccc(-c4ccccc4)cc3)C(O)C(C)O2)Oc2ccc(cc2Cl)C1O (stereo not shown)", 0.90),
    ("CNC(CC(C)C)C(=O)NC1C(=O)NC(CC(N)=O)C(=O)NC2C(=O)NC3C(=O)NC(C(=O)NC(C(=O)O)c4cc(O)cc(O)c4-c4cc3ccc4O)C(OC3CC(C)(N)C(O)C(C)O3)c3ccc(c(Cl)c3)Oc3cc2cc(c3OC2OC(CO)C(O)C(O)C2OC2CC(C)(NCc3ccc(OCc4ccccc4)c(OC)c3)C(O)C(C)O2)Oc2ccc(cc2Cl)C1O (stereo not shown)", 0.30),
    ("CN[C@H](CC(C)C)C(=O)N[C@H]1C(=O)N[C@@H](CC(N)=O)C(=O)N[C@H]2C(=O)N[C@H]3C(=O)N[C@H](C(=O)N[C@H](C(=O)O)c4cc(O)cc(O)c4-c4cc3ccc4O)[C@H](O[C@H]3C[C@](C)(N)[C@@H](O)[C@H](C)O3)c3ccc(c(Cl)c3)Oc3cc2cc(c3O[C@@H]2O[C@H](CO)[C@@H](O)[C@H](O)[C@H]2O[C@H]2C[C@](C)(NCc3ccc(Oc4ccc(Cl)cc4)c([N+](=O)[O-])c3)[C@@H](O)[C@H](C)O2)Oc2ccc(cc2Cl)[C@H]1O", 0.30),
    ("CNC(CC(C)C)C(=O)NC1C(=O)NC(CC(N)=O)C(=O)NC2C(=O)NC3C(=O)NC(C(=O)NC(C(=O)O)c4cc(O)cc(O)c4-c4cc3ccc4O)C(OC3CC(C)(N)C(O)C(C)O3)c3ccc(c(Cl)c3)Oc3cc2cc(c3OC2OC(CO)C(O)C(O)C2OC2CC(C)(NCCCCCCc3ccccc3)C(O)C(C)O2)Oc2ccc(cc2Cl)C1O (stereo not shown)", -0.30),
]
